compounds and their reported pIC50
# measured.on: JAK2 (Homo sapiens)
# Construct: host or cells: baculovirus expression system
# Sequence (O60674 whole entry): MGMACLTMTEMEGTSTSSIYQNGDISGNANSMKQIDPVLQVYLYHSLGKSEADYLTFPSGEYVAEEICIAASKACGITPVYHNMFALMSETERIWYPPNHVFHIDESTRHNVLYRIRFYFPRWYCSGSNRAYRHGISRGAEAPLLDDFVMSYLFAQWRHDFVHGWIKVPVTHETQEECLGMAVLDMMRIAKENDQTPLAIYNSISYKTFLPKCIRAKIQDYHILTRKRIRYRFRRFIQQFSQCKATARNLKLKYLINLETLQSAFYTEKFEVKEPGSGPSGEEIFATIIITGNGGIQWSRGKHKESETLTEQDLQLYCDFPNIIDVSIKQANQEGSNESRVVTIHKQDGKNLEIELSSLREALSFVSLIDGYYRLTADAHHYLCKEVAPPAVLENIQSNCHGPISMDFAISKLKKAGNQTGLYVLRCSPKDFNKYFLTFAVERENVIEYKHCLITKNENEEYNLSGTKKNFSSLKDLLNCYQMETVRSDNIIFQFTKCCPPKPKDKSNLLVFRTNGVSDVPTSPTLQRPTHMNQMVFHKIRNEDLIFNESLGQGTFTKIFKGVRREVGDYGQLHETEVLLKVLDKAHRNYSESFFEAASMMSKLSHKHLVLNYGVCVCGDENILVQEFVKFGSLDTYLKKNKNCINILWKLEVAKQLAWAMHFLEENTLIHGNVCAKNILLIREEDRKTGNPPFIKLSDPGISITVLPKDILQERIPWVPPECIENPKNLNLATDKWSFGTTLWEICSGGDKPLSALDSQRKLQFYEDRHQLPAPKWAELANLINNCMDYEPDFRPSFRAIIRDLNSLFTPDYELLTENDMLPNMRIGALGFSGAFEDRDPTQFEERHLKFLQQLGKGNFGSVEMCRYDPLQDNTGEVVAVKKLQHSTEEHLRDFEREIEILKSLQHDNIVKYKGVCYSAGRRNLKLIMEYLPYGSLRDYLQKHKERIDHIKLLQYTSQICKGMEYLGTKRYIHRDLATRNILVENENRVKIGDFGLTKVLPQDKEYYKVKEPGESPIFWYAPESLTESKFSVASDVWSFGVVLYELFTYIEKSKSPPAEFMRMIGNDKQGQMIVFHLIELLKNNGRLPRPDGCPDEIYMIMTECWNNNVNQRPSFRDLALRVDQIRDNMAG
# procedure.text: Recombinant Human JAK2 Kinase Assay (TRF)
# Assay type: biochemical
# details: JAK2 Kinase Inhibition; read-out: JAK2 Potency
pIC50: −log10 of the molar value.

These solved cases illustrate the format of a correct answer.
CN(C)CCNC(=O)c1ccc(-c2ccc3cnc(Nc4ccc(N5CCOCC5)cc4)nn23)cc1: > 7.00
CC(=O)N1CCCC(C)(C)c2ccc(Nc3ncc4ccc(-c5cnn(C)c5)n4n3)cc21: > 7.00
CN1CCN(c2cccc(Nc3ncc4ccc(-c5cccc(Cl)c5)n4n3)c2)CC1: > 7.00
COc1cc(C2CCN(CC(N)=O)CC2)ccc1Nc1ncc2c(Cl)cc(-c3ccccc3N(C)S(C)(=O)=O)n2n1: 5.00 to 6.00
FC1(F)Oc2cccc(-c3ccc4cnc(Nc5ccc6[nH]c(CN7CCOCC7)nc6c5)nn34)c2O1: > 7.00

pIC50 in this record for COc1ccccc1-c1ccc2cnc(Nc3ccc(F)c(N4CCOCC4)c3)nn12 : > 7.00

pIC50 in this record for COc1ccc(OC)c(-c2ccc3cnc(Nc4ccc(N5CCN(C[C@H](C)O)CC5)cc4OC)nn23)c1 : 5.00 to 6.00

pIC50 in this record for COc1cc(N2CCC(C(=O)N3CCN(C)CC3)CC2)ccc1Nc1ncc2ccc(-c3ccccc3OC)n2n1 : 6.00 to 7.00

* * *

compounds and their reported IC50
# measured.on: ALK (Homo sapiens, UniProt Q9UM73)
# Construct: host or cells: baculovirus expression system
# Sequence (Q9UM73 19-1620): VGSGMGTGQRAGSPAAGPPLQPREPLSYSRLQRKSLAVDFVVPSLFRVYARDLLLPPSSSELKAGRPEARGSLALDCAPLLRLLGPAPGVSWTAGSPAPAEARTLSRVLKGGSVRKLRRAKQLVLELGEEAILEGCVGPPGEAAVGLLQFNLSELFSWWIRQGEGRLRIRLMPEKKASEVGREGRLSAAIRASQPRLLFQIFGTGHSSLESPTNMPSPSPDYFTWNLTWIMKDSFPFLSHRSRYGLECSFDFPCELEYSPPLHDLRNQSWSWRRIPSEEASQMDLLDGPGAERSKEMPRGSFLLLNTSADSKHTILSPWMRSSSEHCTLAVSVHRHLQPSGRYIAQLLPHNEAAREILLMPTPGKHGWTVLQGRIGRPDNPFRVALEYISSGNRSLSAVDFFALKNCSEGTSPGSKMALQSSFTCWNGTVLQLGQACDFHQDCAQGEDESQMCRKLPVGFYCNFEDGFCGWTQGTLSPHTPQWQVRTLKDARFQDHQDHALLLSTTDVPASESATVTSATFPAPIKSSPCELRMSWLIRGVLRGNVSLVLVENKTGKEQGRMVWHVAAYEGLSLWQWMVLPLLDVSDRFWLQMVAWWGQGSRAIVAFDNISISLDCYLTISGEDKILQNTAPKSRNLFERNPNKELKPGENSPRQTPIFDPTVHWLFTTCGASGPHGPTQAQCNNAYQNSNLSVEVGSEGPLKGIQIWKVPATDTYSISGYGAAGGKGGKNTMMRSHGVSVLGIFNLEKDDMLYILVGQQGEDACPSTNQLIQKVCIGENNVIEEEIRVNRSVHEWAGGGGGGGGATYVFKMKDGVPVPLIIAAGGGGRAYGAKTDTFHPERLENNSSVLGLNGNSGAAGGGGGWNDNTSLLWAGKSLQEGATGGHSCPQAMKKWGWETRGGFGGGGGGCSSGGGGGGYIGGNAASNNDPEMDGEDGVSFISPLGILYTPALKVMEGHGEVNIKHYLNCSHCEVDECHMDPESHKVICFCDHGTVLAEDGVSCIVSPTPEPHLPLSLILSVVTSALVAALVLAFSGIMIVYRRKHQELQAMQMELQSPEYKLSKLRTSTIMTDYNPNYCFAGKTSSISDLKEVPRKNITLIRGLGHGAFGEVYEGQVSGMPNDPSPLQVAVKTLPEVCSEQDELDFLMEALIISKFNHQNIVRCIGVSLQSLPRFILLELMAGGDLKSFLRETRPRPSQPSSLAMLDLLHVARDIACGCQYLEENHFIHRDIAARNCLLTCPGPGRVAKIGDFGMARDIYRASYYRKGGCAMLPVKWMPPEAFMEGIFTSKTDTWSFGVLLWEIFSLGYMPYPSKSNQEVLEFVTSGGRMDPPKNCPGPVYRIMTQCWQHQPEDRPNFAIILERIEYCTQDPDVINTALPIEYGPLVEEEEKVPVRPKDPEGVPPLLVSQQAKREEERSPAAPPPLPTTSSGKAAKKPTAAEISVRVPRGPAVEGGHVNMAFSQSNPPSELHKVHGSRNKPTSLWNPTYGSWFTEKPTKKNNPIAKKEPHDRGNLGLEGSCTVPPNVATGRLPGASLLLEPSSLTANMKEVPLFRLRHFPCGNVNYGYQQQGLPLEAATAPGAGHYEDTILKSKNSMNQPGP
# procedure.text: ALK Kinase Assay (ELISA/TRF, PLC-γ substrate)
# Format: biochemical
# details: ALK kinase inhibition, 1 μM ATP; read-out: ALK Potency

CN(c1ccccc1-c1ccc2cnc(Nc3ccc(N4CCC(O)CC4)cc3)nn12)S(C)(=O)=O: 0.1 to 1 µM
CN1C(=O)COc2cc(Nc3ncc4ccc(-c5cccc(NS(C)(=O)=O)c5)n4n3)ccc21: 0.1 to 1 µM
COC[C@H](O)CN1CCN(Cc2ccc(Nc3ncc4ccc(-c5ccccc5N(C)S(C)(=O)=O)n4n3)c(OC)c2)CC1: < 0.1 µM

IC50 in this record for COc1cc([C@@H]2CCN(CCF)C[C@@H]2O)ccc1Nc1ncc2ccc(-c3ccccc3N(C)S(C)(=O)=O)n2n1 (racemic) : < 0.1 µM

IC50 in this record for Cc1cc2cnc(Nc3ccc(C4CCN(CC(N)=O)CC4)cc3)nn2c1-c1ccccc1N(C)S(C)(=O)=O : 1 to 10 µM

IC50 in this record for C1=C(c2ccc3cnc(Nc4ccc(N5CCOCC5)cc4)nn23)CCSC1 : 1 to 10 µM

IC50 in this record for CC(C)(C)NS(=O)(=O)c1cccc(-c2ccc3cnc(Nc4ccc5c(c4)C(N)C(O)C5)nn23)c1 (stereo not drawn) : 0.1 to 1 µM

IC50 in this record for CS(=O)(=O)c1cccc(-c2ccc3cnc(Nc4ccc(C5=CCN(CC(N)=O)CC5)c(C(F)(F)F)c4)nn23)c1 : 0.1 to 1 µM

IC50 in this record for CN1CCN(c2ccc(Nc3ncc4ccc(-c5cnccc5NS(C)(=O)=O)n4n3)cc2)CC1 : 1 to 10 µM

IC50 in this record for COc1ccccc1-c1ccc2cnc(Nc3ccc(C4CCN(CC(N)=O)CC4)c(C)c3)nn12 : < 0.1 µM

IC50 in this record for COc1ccc(-c2ccc3cnc(Nc4ccc(C5=CCN(CC(N)=O)CC5)c(C(F)(F)F)c4)nn23)cn1 : 1 to 10 µM

IC50 in this record for COc1cc(N2CCC(N3CCCN(C)CC3)CC2)ccc1Nc1ncc2ccc(-c3ccccc3OC)n2n1 : < 0.1 µM
